# System: DIPGX37 (H3.3 K27M diffuse intrinsic pontine glioma line)
# PROTOCOL: growth inhibition (% activity, log2 RLU normalised to DMSO / staurosporine); higher = more growth inhibition
# ASSAY SETUP: 33 µM
Below, each entry is listed with its recorded growth inhibition.
QUANTITY MEASURED: growth inhibition (%)

>  <MOLECULE>
CN1CCN(c2c(F)cc3c(=O)c(C(=O)O)cn(CCF)c3c2F)CC1

>  <QUANTITATIVE RESULT>
4.17

$$$$
>  <MOLECULE>
Nc1nc(NC2CC2)c2ncn([C@H]3C=C[C@@H](CO)C3)c2n1

>  <QUANTITATIVE RESULT>
3.27

$$$$
>  <MOLECULE>
S=c1[nH]cnc2nc[nH]c12

>  <QUANTITATIVE RESULT>
10.9

$$$$
>  <MOLECULE>
CC(S)C(=O)NCC(=O)O (stereo unspecified)

>  <QUANTITATIVE RESULT>
-1.2

$$$$
>  <MOLECULE>
CC(C)NCC(O)COc1ccc(COCCOC(C)C)cc1 (stereo unspecified)

>  <QUANTITATIVE RESULT>
-0.456

$$$$
>  <MOLECULE>
CC(=O)O[C@]1(C(C)=O)CC[C@H]2[C@@H]3C[C@H](C)C4=CC(=O)CC[C@]4(C)[C@H]3CC[C@@]21C

>  <QUANTITATIVE RESULT>
0.463

$$$$

====

# Test system: DIPGX37
# PROTOCOL: growth inhibition (% activity, log2 RLU normalised to DMSO / staurosporine); higher = more growth inhibition
# ASSAY SETUP: 33 µM

>  <COMPOUND>
O=C(Oc1ccccc1C(=O)O)c1ccccc1O

>  <TARGET SYSTEM>
DIPGX37

>  <growth inhibition [%]>
-1.4

$$$$
>  <COMPOUND>
CCOC(=O)[C@H](CCc1ccccc1)N[C@H]1CCc2ccccc2N(CC(=O)O)C1=O

>  <TARGET SYSTEM>
DIPGX37

>  <growth inhibition [%]>
-0.666

$$$$
>  <COMPOUND>
Oc1c(Cl)cc(Cl)c2cccnc12

>  <TARGET SYSTEM>
DIPGX37

>  <growth inhibition [%]>
3.08

$$$$
>  <COMPOUND>
COc1cc2nc(N3CCN(C(=O)C4COc5ccccc5O4)CC3)nc(N)c2cc1OC (stereo unspecified)

>  <TARGET SYSTEM>
DIPGX37

>  <growth inhibition [%]>
2.32

$$$$
>  <COMPOUND>
CC1(C)S[C@@H]2[C@H](NC(=O)[C@H](NC(=O)N3CCNC3=O)c3ccccc3)C(=O)N2[C@H]1C(=O)O

>  <TARGET SYSTEM>
DIPGX37

>  <growth inhibition [%]>
0.459

$$$$
>  <COMPOUND>
CC(COc1ccccc1)N(CCCl)Cc1ccccc1 (stereo unspecified)

>  <TARGET SYSTEM>
DIPGX37

>  <growth inhibition [%]>
-0.547

$$$$
>  <COMPOUND>
CC(C)NCC(O)c1cc(O)cc(O)c1 (stereo unspecified)

>  <TARGET SYSTEM>
DIPGX37

>  <growth inhibition [%]>
1.67

$$$$
>  <COMPOUND>
Cc1cccn2c(=O)c(-c3nnn[nH]3)cnc12

>  <TARGET SYSTEM>
DIPGX37

>  <growth inhibition [%]>
-1.28

$$$$
>  <COMPOUND>
CCc1cc(C(N)=S)ccn1

>  <TARGET SYSTEM>
DIPGX37

>  <growth inhibition [%]>
-1.22

$$$$
>  <COMPOUND>
CC(C)C(=O)Oc1ccc(CO)cc1[C@H](CCN(C(C)C)C(C)C)c1ccccc1

>  <TARGET SYSTEM>
DIPGX37

>  <growth inhibition [%]>
-1.82

$$$$
>  <COMPOUND>
CCOC(=O)[C@H](CCc1ccccc1)N[C@@H](C)C(=O)N1C(=O)N(C)C[C@H]1C(=O)O

>  <TARGET SYSTEM>
DIPGX37

>  <growth inhibition [%]>
0.599

$$$$

====

# System: SUDIPGXIII (diffuse intrinsic pontine glioma line)
# PROTOCOL: growth inhibition (% activity, log2 RLU normalised to DMSO / staurosporine); higher = more growth inhibition
# ASSAY SETUP: 33 µM
QUANTITY MEASURED: growth inhibition (%)

>  <COMPOUND>
COc1cc2c(cc1O)CC[C@@H]1[C@@H]2CC[C@]2(C)[C@@H](O)CC[C@@H]12

>  <RESULT UNIT>
%

>  <QUANTITATIVE RESULT>
1.78

$$$$
>  <COMPOUND>
CN(C)CCCN1c2ccccc2CCc2ccccc21

>  <RESULT UNIT>
%

>  <QUANTITATIVE RESULT>
2.4

$$$$
>  <COMPOUND>
CC(C)NCC(O)COc1ccc(COCCOC(C)C)cc1 (stereo not drawn)

>  <RESULT UNIT>
%

>  <QUANTITATIVE RESULT>
-1.46

$$$$
>  <COMPOUND>
CC(C(=O)O)c1ccc(-c2ccccc2)c(F)c1 (stereo not drawn)

>  <RESULT UNIT>
%

>  <QUANTITATIVE RESULT>
-0.916

$$$$
>  <COMPOUND>
Cc1cccn2c(=O)c(-c3nnn[nH]3)cnc12

>  <RESULT UNIT>
%

>  <QUANTITATIVE RESULT>
1.3

$$$$
>  <COMPOUND>
CC(C)(O)c1ccccc1CC[C@@H](SCC1(CC(=O)O)CC1)c1cccc(/C=C/c2ccc3ccc(Cl)cc3n2)c1

>  <RESULT UNIT>
%

>  <QUANTITATIVE RESULT>
-15.7

$$$$
>  <COMPOUND>
C[C@]12C=CC(=O)C=C1CC[C@@H]1[C@@H]2[C@@H](O)C[C@@]2(C)[C@H]1CC[C@]2(O)C(=O)CO

>  <RESULT UNIT>
%

>  <QUANTITATIVE RESULT>
0.983

$$$$
>  <COMPOUND>
C[C@@H]1[C@H](O)[C@@H](C)/C=C/C=C/C=C/C=C/C=C/C=C/C=C/[C@H](O[C@@H]2O[C@H](C)[C@@H](O)[C@H](N)[C@@H]2O)C[C@@H]2O[C@](O)(C[C@@H](O)C[C@@H](O)[C@H](O)CC[C@@H](O)C[C@@H](O)CC(=O)O[C@H]1C)C[C@H](O)[C@H]2C(=O)O

>  <RESULT UNIT>
%

>  <QUANTITATIVE RESULT>
1.88

$$$$

====

# Test system: HGGX6 (H3.3 G34R paediatric high-grade glioma line)
# PROTOCOL: growth inhibition (% activity, log2 RLU normalised to DMSO / staurosporine); higher = more growth inhibition
# ASSAY SETUP: 33 µM
Below, each entry is listed with its recorded growth inhibition.
QUANTITY MEASURED: growth inhibition (%)

>  <COMPOUND>
CCCCCCCCCCCCCCCCCCCCCCO

>  <QUANTITATIVE RESULT>
0.445

$$$$
>  <COMPOUND>
CCOC(=O)CCC(=O)O[C@H]1[C@H](O[C@@H]2[C@@H](C)[C@H](O[C@H]3C[C@@](C)(OC)[C@@H](O)[C@H](C)O3)[C@@H](C)C(=O)O[C@H](CC)[C@@](C)(O)[C@H](O)[C@@H](C)C(=O)[C@H](C)C[C@@]2(C)O)O[C@H](C)C[C@@H]1N(C)C

>  <QUANTITATIVE RESULT>
-2.75

$$$$
>  <COMPOUND>
NCCc1c[nH]cn1

>  <QUANTITATIVE RESULT>
3.55

$$$$
>  <COMPOUND>
COc1cc2c(cc1O)CC[C@@H]1[C@@H]2CC[C@]2(C)[C@@H](O)CC[C@@H]12

>  <QUANTITATIVE RESULT>
11.7

$$$$
>  <COMPOUND>
CCN(CC)CCNC(=O)c1c(C)[nH]c(/C=C2\C(=O)Nc3ccc(F)cc32)c1C

>  <QUANTITATIVE RESULT>
20.3

$$$$
>  <COMPOUND>
CC1CCc2cc(F)cc3c(=O)c(C(=O)O)cn1c23 (centres undefined)

>  <QUANTITATIVE RESULT>
2.29

$$$$
>  <COMPOUND>
O=C(O)c1cn(-c2ccc(F)cc2)c2cc(N3CCNCC3)c(F)cc2c1=O

>  <QUANTITATIVE RESULT>
3.31

$$$$
>  <COMPOUND>
CCOc1cc(N)c(Cl)cc1C(=O)NCC1CN(Cc2ccc(F)cc2)CCO1 (centres undefined)

>  <QUANTITATIVE RESULT>
0.0657

$$$$
>  <COMPOUND>
C=CC(=O)N1CCC[C@@H](n2nc(-c3ccc(Oc4ccccc4)cc3)c3c(N)ncnc32)C1

>  <QUANTITATIVE RESULT>
12.5

$$$$

The reported measurements were obtained from the supplement of paper PMC8253809.
